Target: S275W HSC70-NBD (Homo sapiens, UniProt P11142, S275W)
Construct: made in house
Sequence (P11142 2-386 S275W limits assumed): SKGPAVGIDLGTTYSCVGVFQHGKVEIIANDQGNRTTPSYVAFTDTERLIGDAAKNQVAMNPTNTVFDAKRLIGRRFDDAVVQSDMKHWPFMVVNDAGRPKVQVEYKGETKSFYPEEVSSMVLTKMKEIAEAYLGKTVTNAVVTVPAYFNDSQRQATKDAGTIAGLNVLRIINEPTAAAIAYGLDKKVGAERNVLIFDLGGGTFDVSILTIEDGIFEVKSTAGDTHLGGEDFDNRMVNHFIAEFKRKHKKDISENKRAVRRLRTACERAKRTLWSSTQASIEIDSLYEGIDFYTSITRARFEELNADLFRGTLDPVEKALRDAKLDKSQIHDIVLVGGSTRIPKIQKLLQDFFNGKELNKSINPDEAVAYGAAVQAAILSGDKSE
Assay: SPR binding to S275W mutant HSC70-NBD
Settings: SPR, single determination; read-out: KD S275W HSC70
Measured Parameter: Kd

Would you kindly share the measured Kd for NC(=O)N1CCN(c2nc(-c3ccc(C#CCN4CCOCC4)cc3)cs2)CC1 [Compound 3] ?
352 µM

Every entry's value here was drawn from paper PMC8839746.
